assay.procedure: Pharmacokinetics in Sprague Dawley rats (plasma and brain concentrations, PK parameters)
Assay type: in vivo
condition.set: Sprague-Dawley, rat, plasma, iv, 3 mg/kg, Sprague Dawley rat, iv 3 mg/kg, plasma, 5 min, Rat 2; read-out: Concentration Rat 2
reported.metric: concentration at 5 min
Report as: number unit

Task: Give concentration at 5 min for the following compound: O=C1CCC(N2C(=O)c3cccc(NCCOCCOCCNCc4ccc(-n5cc(NC(=O)c6coc(-c7ccnc(NCC8CC8)c7)n6)c(C(F)F)n5)cc4)c3C2=O)C(=O)N1 (stereo not shown)
Output: 652 ng/mL

* * *

target: IRAK4 (Homo sapiens, UniProt Q9NWZ3)
Sequence (Q9NWZ3 whole entry): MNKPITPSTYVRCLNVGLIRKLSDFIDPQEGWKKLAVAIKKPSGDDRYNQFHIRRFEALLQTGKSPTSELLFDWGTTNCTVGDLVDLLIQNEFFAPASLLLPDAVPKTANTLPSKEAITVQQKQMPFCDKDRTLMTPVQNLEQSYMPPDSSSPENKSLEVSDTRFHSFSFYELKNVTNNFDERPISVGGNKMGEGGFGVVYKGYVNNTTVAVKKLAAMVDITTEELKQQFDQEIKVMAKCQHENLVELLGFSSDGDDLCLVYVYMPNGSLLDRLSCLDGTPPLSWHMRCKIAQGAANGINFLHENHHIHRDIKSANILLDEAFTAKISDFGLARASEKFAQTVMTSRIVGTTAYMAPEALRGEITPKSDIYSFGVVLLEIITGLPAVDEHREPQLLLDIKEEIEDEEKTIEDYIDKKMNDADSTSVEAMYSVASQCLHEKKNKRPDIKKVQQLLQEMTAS
assay.procedure: OCI-LY-10 MSD assay for IRAK4 DC50
Assay type: cell-based
Parameters: endogenous in cells; host or cells: OCI-LY10
condition.set: OCI-LY10 cells, 4 hr incubation, concentration required to degrade 50% of protein
reported.metric: DC50

Task: Give DC50 for the following molecule: O=C1CCC(N2C[C@H](c3cccc(C#CCN4CCO[C@@H](CNC(=O)c5ccc(-n6cc(NC(=O)c7coc(-c8ccnc(NCC9CC9)c8)n7)c(C(F)F)n6)cc5)C4)c3)OC2=O)C(=O)N1 (stereo partly drawn)
Output: < 50 nM

Task: Give DC50 for the following molecule: NC(=O)c1nn(-c2ccc(CNCCOCCOCCCc3ccc4c(c3)oc(=O)n4C3CCC(=O)NC3=O)cc2)cc1NC(=O)c1coc(-c2ccnc(NCC(F)(F)F)c2)n1 (stereo not drawn)
Output: < 50 nM

Task: Give DC50 for the following molecule: Cn1c(=O)n(C2CCC(=O)NC2=O)c2ccc(CCCCOCCCCNC(=O)c3ccc(-n4cc(NC(=O)c5cnn6ccc(N7CCNCC7)nc56)c(C(F)F)n4)cc3)cc21 (stereo not drawn)
Output: 50 to 100 nM
